Target: Human COX-2 (Homo sapiens)
Construct: endogenous in cells
Sequence (P35354 18-604): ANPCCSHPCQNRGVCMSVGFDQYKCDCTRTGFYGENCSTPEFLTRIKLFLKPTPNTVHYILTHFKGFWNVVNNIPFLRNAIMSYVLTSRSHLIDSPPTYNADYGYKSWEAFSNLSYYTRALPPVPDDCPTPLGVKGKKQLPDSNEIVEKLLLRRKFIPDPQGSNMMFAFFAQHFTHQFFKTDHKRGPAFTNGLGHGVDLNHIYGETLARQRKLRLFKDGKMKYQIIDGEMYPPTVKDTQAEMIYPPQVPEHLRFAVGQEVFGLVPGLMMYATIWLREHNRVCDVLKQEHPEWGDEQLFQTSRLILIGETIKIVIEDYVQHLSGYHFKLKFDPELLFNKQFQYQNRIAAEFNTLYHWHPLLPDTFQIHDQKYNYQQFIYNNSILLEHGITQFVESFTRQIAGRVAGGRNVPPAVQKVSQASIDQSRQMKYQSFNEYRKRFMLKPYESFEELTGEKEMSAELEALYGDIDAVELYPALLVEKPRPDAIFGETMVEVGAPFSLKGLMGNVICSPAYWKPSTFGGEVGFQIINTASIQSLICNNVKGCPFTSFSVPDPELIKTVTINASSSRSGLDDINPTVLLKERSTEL
Test: Human COX-2 Inhibitory Activity Test (LPS-induced PGE2 in blood)
Settings: human blood, LPS, PGE2; IC50 from Hill Plot
pIC50: −log10 of the molar value.
readout_name: pIC50

Cc1cc(-c2cccc(N(C)C)c2)c(-c2ccc(S(C)(=O)=O)cc2)[nH]1 = 6.46
Cc1cc(-c2cccc(Cl)c2)c(-c2ccc(S(C)(=O)=O)cc2)[nH]1 = 6.79
CCc1cc(-c2ccc(F)cc2)c(-c2ccc(S(C)(=O)=O)cc2)[nH]1 = 7.08
Cc1cc(-c2ccc(F)cc2F)c(-c2ccc(S(C)(=O)=O)cc2)[nH]1 = 6.84
Cc1cc(F)cc(-c2cc(C)[nH]c2-c2ccc(S(C)(=O)=O)cc2)c1 = 6.79

[A] CSc1ccc(-c2cc(C)[nH]c2-c2ccc(S(C)(=O)=O)cc2)cc1
[B] CS(=O)(=O)c1ccc(-c2[nH]c(CCC(=O)O)cc2-c2ccc(F)cc2)cc1
Dear colleague, could you let me know whether A or B has the lower recorded pIC50? Thanks. In your reply, give the label of the chosen option.
B
